All figures here come from the supplement of paper PMC7695840.

System: Staphylococcus aureus MW2 delta-mecA (mecA-)
Assay: IC50 (growth, competition assay)
Settings: fluorescent label: DsRed; cefoxitin: subinhibitory
Where a name gives a salt, the structure may show the parent alone.
Value Kind: IC50

compound="CN1C[C@@H]2C[C@H]1CN2c1cc2c(cc1F)c(=O)c(C(=O)O)cn2C1CC1 [Danofloxacin Mesylate]" value_kind=IC50 result="< 9.85 µM"
compound="O=C(N[C@@H](Cc1ccccc1)C(=O)CCl)OCc1ccccc1 [Z-L-Phe chloromethyl ketone]" value_kind=IC50 result="< 9.85 µM"
compound="CC[C@H]1OC(=O)C[C@@H](O)[C@H](C)[C@@H](O[C@@H]2O[C@H](C)[C@@H](O)[C@H](N(C)C)[C@H]2O)[C@@H](CCN2C[C@H](C)C[C@H](C)C2)C[C@@H](C)C(=O)/C=C/C(C)=C/[C@@H]1CO[C@@H]1O[C@H](C)[C@@H](O)[C@@H](OC)[C@H]1OC [Tilmicosin]" value_kind=IC50 result="< 9.85 µM"
compound="CCOc1ccc2ccccc2c1C(=O)N[C@@H]1C(=O)N2[C@@H]1SC(C)(C)[C@@H]2C(=O)O [Nafcillin Sodium]" value_kind=IC50 result="< 9.85 µM"
compound="Cc1cncc(CN2CCC(=C3c4ccc(Cl)cc4CCc4cccnc43)CC2)c1 [Rupatadine Fumarate]" value_kind=IC50 result="26.6 µM"
compound="CCCCc1oc2ccc(NS(C)(=O)=O)cc2c1C(=O)c1ccc(OCCCN(CCCC)CCCC)cc1 [Dronedarone HCl (Multaq)]" value_kind=IC50 result="5.95 µM"
compound="CC(C)[C@H]1c2ccc(F)cc2CC[C@@]1(CCN(C)CCCc1nc2ccccc2[nH]1)OC(=O)C1CC1 [NNC 55-0396]" value_kind=IC50 result="< 9.85 µM"
compound="C=C[C@](C)(O)CC[C@@H]1[C@@]2(C)CCCC(C)(C)[C@@H]2CC[C@@]1(C)O [SCLAREOL]" value_kind=IC50 result="< 9.85 µM"
compound="CC[C@H]1OC(=O)C[C@@H](O)[C@H](C)[C@@H](O[C@@H]2O[C@H](C)[C@@H](O[C@H]3C[C@@](C)(O)[C@@H](O)[C@H](C)O3)[C@H](N(C)C)[C@H]2O)[C@@H](CC=O)C[C@@H](C)C(=O)/C=C/C(C)=C/[C@@H]1CO[C@@H]1O[C@H](C)[C@@H](O)[C@@H](OC)[C@H]1OC [Tylosin tartrate]" value_kind=IC50 result="< 9.85 µM"
compound="CCCCCCCCCCCCCCCCC(C(=O)O)C(O)(CC(=O)O)C(=O)O (stereo not drawn) [AGARIC ACID]" value_kind=IC50 result="< 9.85 µM"
compound="N[C@@H]1CONC1=O [SEROMYCIN]" value_kind=IC50 result="98.8 µM"
compound="CCN(CC)CCOc1ccc(C(=C(Cl)c2ccccc2)c2ccccc2)cc1 [Clomifene citrate (Serophene)]" value_kind=IC50 result="< 9.85 µM"
compound="FC(F)(F)c1ccc(Nc2nc3ccc(Oc4ccnc(-c5ncc(C(F)(F)F)[nH]5)c4)cc3[nH]2)cc1 [Raf265 derivative]" value_kind=IC50 result="< 9.85 µM"

====

System: Staphylococcus aureus MW2 (mecA+)
Assay: IC50 (growth, competition assay)
Conditions: fluorescent label: DsRed; cefoxitin: subinhibitory
pIC50: −log10 of the molar value. Where a name gives a salt, the structure may show the parent alone.
Value Kind: pIC50

compound=NCc1ccccc1CC(=O)N[C@@H]1C(=O)N2C(C(=O)O)=C(CSc3nnnn3CC(=O)O)CS[C@H]12 target="Staphylococcus aureus MW2 (mecA+)" value_kind=pIC50 value_comparator== numeric_result=4.27
compound="CO/N=C(\\C(=O)N[C@@H]1C(=O)N2C(C(=O)O)=C(COC(C)=O)CS[C@H]12)c1csc(N)n1 [Cefotaxime sodium]" target="Staphylococcus aureus MW2 (mecA+)" value_kind=pIC50 value_comparator=> numeric_result=5.01
compound="CN(C)c1ccc(O)c2c1C[C@H]1C[C@H]3[C@H](N(C)C)C(O)=C(C(N)=O)C(=O)[C@@]3(O)C(O)=C1C2=O [Minocycline hydrochloride]" target="Staphylococcus aureus MW2 (mecA+)" value_kind=pIC50 value_comparator=> numeric_result=5.01
compound=CC(C)n1cnc2c(NCCc3ccc(O)cc3)nc(-c3csc4ccccc34)nc21 target="Staphylococcus aureus MW2 (mecA+)" value_kind=pIC50 value_comparator== numeric_result=4.59
compound=CCCCCCCCCCCCCCCC(=O)OC[C@H](O)[C@H]1OC(=O)C(O)=C1O target="Staphylococcus aureus MW2 (mecA+)" value_kind=pIC50 value_comparator== numeric_result=4.28
compound="CCOC(=O)[C@@H](N)Cc1ccc(-c2cc(O[C@H](c3ccc(Cl)cc3-n3ccc(C)n3)C(F)(F)F)nc(N)n2)cc1 [LX1606 hippurate]" target="Staphylococcus aureus MW2 (mecA+)" value_kind=pIC50 value_comparator== numeric_result=4.66
compound="[O-][n+]1ccccc1[S-].[O-][n+]1ccccc1[S-].[Zn+2] [ZINC OMADINE]" target="Staphylococcus aureus MW2 (mecA+)" value_kind=pIC50 value_comparator=> numeric_result=5.01
compound="Clc1ccc(C(c2ccc(Cl)cc2)[n+]2ccn(CC(OCc3ccc(Cl)cc3Cl)c3ccc(Cl)cc3Cl)c2)cc1 (stereo not given) [Calmidazolium chloride]" target="Staphylococcus aureus MW2 (mecA+)" value_kind=pIC50 value_comparator=> numeric_result=5.01
compound="CC(=O)NC1CCSC1=O (stereo not given)" target="Staphylococcus aureus MW2 (mecA+)" value_kind=pIC50 value_comparator== numeric_result=4.25
compound=CCn1cc(C(=O)O)c(=O)c2cc(F)c(N3CCNCC3)cc21 target="Staphylococcus aureus MW2 (mecA+)" value_kind=pIC50 value_comparator== numeric_result=6.09
compound="CCOC(=O)C1=C(C)NC(C)=C(C(=O)OC)C1c1cccc(Cl)c1Cl (stereo not given) [Felodipine (Plendil)]" target="Staphylococcus aureus MW2 (mecA+)" value_kind=pIC50 value_comparator== numeric_result=4.65
compound="CC(=O)Oc1ccccc1C(=O)Nc1ncc([N+](=O)[O-])s1 [Nitazoxanide (Alinia, Annita)]" target="Staphylococcus aureus MW2 (mecA+)" value_kind=pIC50 value_comparator== numeric_result=4.26
compound="CC[C@H]1OC(=O)C[C@@H](O)[C@H](C)[C@@H](O[C@@H]2O[C@H](C)[C@@H](O[C@H]3C[C@@](C)(O)[C@@H](O)[C@H](C)O3)[C@H](N(C)C)[C@H]2O)[C@@H](CC=O)C[C@@H](C)C(=O)/C=C/C(C)=C/[C@@H]1CO[C@@H]1O[C@H](C)[C@@H](O)[C@@H](OC)[C@H]1OC [Tylosin tartrate]" target="Staphylococcus aureus MW2 (mecA+)" value_kind=pIC50 value_comparator=> numeric_result=5.01
compound=Oc1c(I)cc(I)c2cccnc12 target="Staphylococcus aureus MW2 (mecA+)" value_kind=pIC50 value_comparator== numeric_result=4.68
compound=CC[C@@H](C(=O)O)[C@@H]1O[C@@H]([C@@H](C)[C@H](O)[C@H](C)C(=O)[C@H](CC)[C@H]2O[C@]3(C=C[C@@H](O)[C@]4(CC[C@@](C)([C@H]5CC[C@](O)(CC)[C@H](C)O5)O4)O3)[C@H](C)C[C@@H]2C)[C@@H](C)C[C@@H]1C target="Staphylococcus aureus MW2 (mecA+)" value_kind=pIC50 value_comparator=> numeric_result=5.01
compound="C[C@@H](O)[C@H]1C(=O)N2C(C(=O)O)=C(S[C@@H]3CN[C@H](CNS(N)(=O)=O)C3)[C@H](C)[C@H]12 [Doripenem Hydrate]" target="Staphylococcus aureus MW2 (mecA+)" value_kind=pIC50 value_comparator=< numeric_result=3.82
compound="COc1cccc(C2(O)CCCCC2CN(C)C)c1 (stereo not given)" target="Staphylococcus aureus MW2 (mecA+)" value_kind=pIC50 value_comparator== numeric_result=3.88
compound=FC(F)(F)c1ccc(Nc2nc3ccc(Oc4ccnc(-c5ncc(C(F)(F)F)[nH]5)c4)cc3[nH]2)cc1 target="Staphylococcus aureus MW2 (mecA+)" value_kind=pIC50 value_comparator== numeric_result=4.71
compound="CCCCCCCCNC(C)C(O)c1ccc(SC(C)C)cc1 (stereo not given)" target="Staphylococcus aureus MW2 (mecA+)" value_kind=pIC50 value_comparator== numeric_result=4.53
compound="O=C1C2CC=CCC2C(=O)N1SC(Cl)(Cl)Cl (stereo not given)" target="Staphylococcus aureus MW2 (mecA+)" value_kind=pIC50 value_comparator== numeric_result=4.80
compound=CC=CC1=C(C(=O)O)N2C(=O)[C@@H](NC(=O)[C@H](N)c3ccc(O)cc3)[C@H]2SC1 target="Staphylococcus aureus MW2 (mecA+)" value_kind=pIC50 value_comparator== numeric_result=3.95
compound=C=CC(=O)Nc1cccc(Sc2nc(Nc3ccc(N4CCN(C)CC4)cc3)ncc2Cl)c1 target="Staphylococcus aureus MW2 (mecA+)" value_kind=pIC50 value_comparator== numeric_result=4.77
compound=N#C[C@H](O[C@@H]1O[C@H](CO[C@@H]2O[C@H](CO)[C@@H](O)[C@H](O)[C@H]2O)[C@@H](O)[C@H](O)[C@H]1O)c1ccccc1 target="Staphylococcus aureus MW2 (mecA+)" value_kind=pIC50 value_comparator== numeric_result=4.62
compound="COC(=O)C1=C(C)NC(C)=C(C(=O)OCC(C)C)C1c1ccccc1[N+](=O)[O-] (stereo not given) [Nisoldipine]" target="Staphylococcus aureus MW2 (mecA+)" value_kind=pIC50 value_comparator== numeric_result=4.20
compound=Cc1coc2c1C(=O)C(=O)c1c-2ccc2c(C)cccc12 target="Staphylococcus aureus MW2 (mecA+)" value_kind=pIC50 value_comparator== numeric_result=3.89
compound=CC(C)(C)c1cc(C=C(C#N)C#N)cc(C(C)(C)C)c1O target="Staphylococcus aureus MW2 (mecA+)" value_kind=pIC50 value_comparator=> numeric_result=5.01
compound="Oc1cc2c(cc1O)CN(C(=S)NCCc1ccc(Cl)cc1)CCC2 [Capsazepine]" target="Staphylococcus aureus MW2 (mecA+)" value_kind=pIC50 value_comparator== numeric_result=4.23
compound="O=C(O)c1cn(C2CC2)c2cc(N3CCNCC3)c(F)cc2c1=O [CIPRO]" target="Staphylococcus aureus MW2 (mecA+)" value_kind=pIC50 value_comparator=> numeric_result=5.01
compound="O=c1[nH]cc(F)c(=O)[nH]1 [Adrucil (Fluorouracil)]" target="Staphylococcus aureus MW2 (mecA+)" value_kind=pIC50 value_comparator== numeric_result=5.76
compound=Clc1ccccc1C(c1ccccc1)(c1ccccc1)n1ccnc1 target="Staphylococcus aureus MW2 (mecA+)" value_kind=pIC50 value_comparator== numeric_result=4.79
